- assay_target: LCAT (purified from human plasma) (Homo sapiens)
- Construct: from tissue; host or cells: human plasma
- Sequence (P04180 25-440): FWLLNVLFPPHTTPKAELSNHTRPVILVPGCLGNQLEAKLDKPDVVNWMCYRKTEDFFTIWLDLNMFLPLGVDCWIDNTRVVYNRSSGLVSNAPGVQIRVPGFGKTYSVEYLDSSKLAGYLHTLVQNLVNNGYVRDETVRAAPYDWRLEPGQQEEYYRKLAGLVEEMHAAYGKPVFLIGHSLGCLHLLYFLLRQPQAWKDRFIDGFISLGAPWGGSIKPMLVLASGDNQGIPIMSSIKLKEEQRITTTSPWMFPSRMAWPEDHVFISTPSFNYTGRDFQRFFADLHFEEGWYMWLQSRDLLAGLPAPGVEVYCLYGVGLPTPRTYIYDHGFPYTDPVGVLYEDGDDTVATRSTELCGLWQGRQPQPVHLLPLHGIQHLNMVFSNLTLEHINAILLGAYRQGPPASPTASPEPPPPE
- protocol_notes: LCAT activation assay
- Assay type: biochemical
- applied_conditions: LCAT activation as compared with native human ApoA-I (= 100%), equivalent masses
No end group written: not given here.
Use 10% as the dividing line for ACTIVITY (%) LCAT, with the line itself on the Fulfilled side and lower values as Not fulfilled.

Previously resolved entries follow.
[
  {
    "substance": "Ac-PVLDLFREWLEELKQKLK-NH2 [compound 205]",
    "category_label": "Fulfilled"
  },
  {
    "substance": "Ac-PALELFKDLLEELRQRLK-NH2 [compound 208]",
    "category_label": "Fulfilled"
  }
]

Exercise: # check: ACTIVITY (%) LCAT of PVLDLFRELLNELLEAGKQKLK [compound 12] is greater than or equal to 10%
Key: Fulfilled

Exercise: # check: ACTIVITY (%) LCAT of PVLELFENLLEKLLDLLQKKLK [compound 171] is greater than or equal to 10%
Key: Fulfilled

Exercise: # check: ACTIVITY (%) LCAT of Ac-PVLDLFRELLEEWKQKLK-NH2 [compound 215] is greater than or equal to 10%
Key: Fulfilled

Exercise: # check: ACTIVITY (%) LCAT of PLLNELLEALKQKLK [compound 104] is greater than or equal to 10%
Key: Not fulfilled

Exercise: # check: ACTIVITY (%) LCAT of Ac-PVLELLKELLEELKQKLK-NH2 [compound 207] is greater than or equal to 10%
Key: Fulfilled

Exercise: # check: ACTIVITY (%) LCAT of PVLDLFNELLRELLEALQKKLK [compound 40] is greater than or equal to 10%
Key: Fulfilled

Exercise: # check: ACTIVITY (%) LCAT of VVLDLFRELLNELLEALKQKLK [compound 53] is greater than or equal to 10%
Key: Fulfilled

Values were extracted from patent US7273848B2.
